Source listed as ChEMBL document CHEMBL4024708.

Tested on: Pseudomonas aeruginosa
Experiment: Antibacterial activity against Pseudomonas aeruginosa MTCC 2581 by spectrophotometric method
Format: functional
Settings: read-out: MIC
assayMetric: MIC (µg/mL)
I only need the number, in µg/mL, no unit after it.

Known results for compounds:
{"columns": ["compound", "experimentalResult"],
 "data": [
  ["CCC(=O)C1=C(C)NC(=O)NC1c1cccc(OC)c1 (configuration not stated)", 250],
  ["CC(=O)C1=C(C)NC(=O)NC1c1ccc(Cl)cc1 (configuration not stated)", 250],
  ["CC(=O)C1=C(C)NC(=O)NC1c1ccccc1 (configuration not stated)", 250],
  ["CCC(=O)C1=C(C)NC(=O)NC1c1ccc(OC)cc1 (configuration not stated)", 250],
  ["CCC(=O)C1=C(C)NC(=O)NC1c1cccc(Cl)c1 (configuration not stated)", 62.5],
  ["CCCCC1NC(=O)NC(C)=C1C(=O)CC (configuration not stated)", 250]
]}

Fill in the recorded MIC for this compound, with Pseudomonas aeruginosa as test system: COc1ccc(C2NC(=O)NC(C)=C2C(C)=O)cc1 (configuration not stated)
250

###

Biological target: Alpha-1A adrenergic receptor (Homo sapiens, UniProt P35348)
Sequence (P35348 whole entry): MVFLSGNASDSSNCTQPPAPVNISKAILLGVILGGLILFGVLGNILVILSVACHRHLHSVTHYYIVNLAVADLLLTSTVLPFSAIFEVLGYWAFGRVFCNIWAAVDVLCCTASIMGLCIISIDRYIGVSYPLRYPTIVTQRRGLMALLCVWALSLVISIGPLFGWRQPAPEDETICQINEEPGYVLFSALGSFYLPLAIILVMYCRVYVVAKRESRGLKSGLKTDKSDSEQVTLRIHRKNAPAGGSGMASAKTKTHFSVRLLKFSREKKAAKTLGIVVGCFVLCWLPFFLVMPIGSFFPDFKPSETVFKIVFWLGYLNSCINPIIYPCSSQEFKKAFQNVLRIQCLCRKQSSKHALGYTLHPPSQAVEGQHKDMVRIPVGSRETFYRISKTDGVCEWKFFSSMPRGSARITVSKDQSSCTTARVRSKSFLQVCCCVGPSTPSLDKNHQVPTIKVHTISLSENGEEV
Test: Displacement of [125I]L-762,459 from recombinant human alpha1a adrenergic receptor expressed in mammalian cells measured after 1 hr
Ki values, listed per item
I only need the number, in nM, no unit after it.

Known results for compounds:
{"columns": ["smiles", "experimentalResult"],
 "data": [
  ["COCC1=C(C(=O)NCCCN2CCC(C#N)(c3ccc(C#N)cc3)CC2)[C@@H](c2ccc(F)c(F)c2)NC(=O)N1", 0.16],
  ["CC1=C(C(=O)NCCCN2CCC(c3ccc(F)cc3)CC2)[C@@H](c2ccc(F)c(F)c2)N(C)C(=O)N1C", 0.14]
]}

Entry `COCC1=C(C(=O)NCCCN2CCC(C#N)(c3ccc(F)cc3)CC2)[C@@H](c2ccc(F)cc2)NCN1` has what Ki?
0.17

###

Assay: Half-life in Beagle dog at 0.5 mg/kg, iv by LC-MS analysis
Assay type: ADME, organism-based, Canis lupus familiaris
Conditions: in vivo
assayMetric: half-life

Entry `COCC1=C(C(=O)NCCCN2CCC(c3ccc(F)cc3)CC2)[C@@H](c2ccc(F)c(F)c2)NC(=O)N1` has what half-life?
7 to 8 h
